tested on: S. aureus 5; test: MIC by microdilution, S. aureus 5; assay type: cell-based; settings: Staphylococcus aureus; S. aureus 5, methicillin resistant (MRSA) clinical isolate; read-out: MIC
measurement label: log10 MIC (log10 of the value in µg/mL)
Hey, these are logged values: log10 of MIC, µg/mL being the unit before logging.

{"compound": "OCCCCn1cc([C+](c2cn(CCCCO)c3ccccc23)c2cn(CCCCO)c3ccccc23)c2ccccc21.[Cl-] [8c]", "log10 MIC": 0.90}
{"compound": "OCCCCCCn1cc([C+](c2cn(CCCCCCO)c3ccccc23)c2cn(CCCCCCO)c3ccccc23)c2ccccc21.[Cl-] [8e]", "log10 MIC": -0.30}
{"compound": "C[C@H]1COc2c(N3CCN(C)CC3)c(F)cc3c(=O)c(C(=O)O)cn1c23 [Lf, levofloxacin, reference compound]", "log10 MIC": -0.60}
{"compound": "OCCn1cc([C+](c2cn(CCO)c3ccccc23)c2cn(CCO)c3ccccc23)c2ccccc21.[Cl-] [8a]", "log10 MIC": 1.81}
{"compound": "OCCCn1cc([C+](c2cn(CCCO)c3ccccc23)c2cn(CCCO)c3ccccc23)c2ccccc21.[Cl-] [8b]", "log10 MIC": 1.20}

**Q:** What does the data say about its log10 MIC? Entry: OCCCCCn1cc([C+](c2cn(CCCCCO)c3ccccc23)c2cn(CCCCCO)c3ccccc23)c2ccccc21.[Cl-] [8d]
**A:** 0.60
